Molecular target: HA of ca A/New Caledonia/20/99 (H1N1) (influenza A virus)
Assay: cell-based or functional assay
Collected Neutralization IC50, H1-Ncal99 values appear next to each entry.

{"columns": ["BINDER", "UNIT TAG", "Neutralization IC50, H1-Ncal99"],
 "data": [
  ["Antibody 15 (antibody, V domains shown) VH: QVQLQQSGPGLVKPSQTLSLTCAISGDSVSSNNAVWNWIRQSPSRGLEWLGRTYYRSKWYNDYAESVKSRITINPDTSKNQFSLQLNSVTPEDTAVYYCARSGHITVFGVNVDAFDMWGQGTTVTVSS VL: DIQMTQSPSSLSASVGDRVTITCRTSQSLSSYTHWYQQKPGKAPKLLIYAASSRGSGVPSRFSGSGSGTDFTLTISSLQPEDFATYYCQQSRTFGQGTKVEIK", "µg/mL", 0.79],
  ["Antibody 12 (antibody, V domains shown) VH: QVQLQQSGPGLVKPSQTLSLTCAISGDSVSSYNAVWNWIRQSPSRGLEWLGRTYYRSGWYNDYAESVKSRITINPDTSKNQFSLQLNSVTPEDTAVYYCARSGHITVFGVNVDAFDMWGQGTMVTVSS VL: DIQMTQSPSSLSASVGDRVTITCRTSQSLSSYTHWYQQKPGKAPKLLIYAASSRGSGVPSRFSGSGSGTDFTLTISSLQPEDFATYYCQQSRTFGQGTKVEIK", "µg/mL", 0.61],
  ["Antibody 11 (antibody, V domains shown) VH: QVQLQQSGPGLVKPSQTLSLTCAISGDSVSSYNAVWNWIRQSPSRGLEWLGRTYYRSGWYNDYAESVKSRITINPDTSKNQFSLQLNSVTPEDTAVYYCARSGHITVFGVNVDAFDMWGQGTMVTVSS VL: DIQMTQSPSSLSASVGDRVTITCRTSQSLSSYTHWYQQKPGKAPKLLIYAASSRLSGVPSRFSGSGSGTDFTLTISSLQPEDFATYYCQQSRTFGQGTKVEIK", "µg/mL", 0.66]
]}

The values you see were collected from patent US20160257732A1.
